target: T1, mSlo1/β4(N123F) channel (mouse | human, UniProt Q08460 1-1209; Q86W47 1-210, N123F); test: patch-clamp electrophysiology (time course of current block); outside-out patches of transfected HEK293 cells perfused with 1 μM ChTX; steps to +100 mV, intracellular 10 μM Ca2+; τon and τoff fitted to a first order bimolecular reaction scheme; KD = [ChTX]/((τoff/τon) − 1); settings: one partner purified
T1 construct: mSlo1, BK channel α subunit (KCNMA1) of mouse, full-length cDNA, GenBank HQ221747.1; human BK channel β4 subunit (KCNMB4), full-length cDNA, GenBank AF207992.1; source: HEK293, transiently co-transfected (pcDNA3.1(+)), in excised membrane patches; copies: 4 + 4
T1 sequence (Q08460 whole entry, chain 1 of 2, the tested form may be a part): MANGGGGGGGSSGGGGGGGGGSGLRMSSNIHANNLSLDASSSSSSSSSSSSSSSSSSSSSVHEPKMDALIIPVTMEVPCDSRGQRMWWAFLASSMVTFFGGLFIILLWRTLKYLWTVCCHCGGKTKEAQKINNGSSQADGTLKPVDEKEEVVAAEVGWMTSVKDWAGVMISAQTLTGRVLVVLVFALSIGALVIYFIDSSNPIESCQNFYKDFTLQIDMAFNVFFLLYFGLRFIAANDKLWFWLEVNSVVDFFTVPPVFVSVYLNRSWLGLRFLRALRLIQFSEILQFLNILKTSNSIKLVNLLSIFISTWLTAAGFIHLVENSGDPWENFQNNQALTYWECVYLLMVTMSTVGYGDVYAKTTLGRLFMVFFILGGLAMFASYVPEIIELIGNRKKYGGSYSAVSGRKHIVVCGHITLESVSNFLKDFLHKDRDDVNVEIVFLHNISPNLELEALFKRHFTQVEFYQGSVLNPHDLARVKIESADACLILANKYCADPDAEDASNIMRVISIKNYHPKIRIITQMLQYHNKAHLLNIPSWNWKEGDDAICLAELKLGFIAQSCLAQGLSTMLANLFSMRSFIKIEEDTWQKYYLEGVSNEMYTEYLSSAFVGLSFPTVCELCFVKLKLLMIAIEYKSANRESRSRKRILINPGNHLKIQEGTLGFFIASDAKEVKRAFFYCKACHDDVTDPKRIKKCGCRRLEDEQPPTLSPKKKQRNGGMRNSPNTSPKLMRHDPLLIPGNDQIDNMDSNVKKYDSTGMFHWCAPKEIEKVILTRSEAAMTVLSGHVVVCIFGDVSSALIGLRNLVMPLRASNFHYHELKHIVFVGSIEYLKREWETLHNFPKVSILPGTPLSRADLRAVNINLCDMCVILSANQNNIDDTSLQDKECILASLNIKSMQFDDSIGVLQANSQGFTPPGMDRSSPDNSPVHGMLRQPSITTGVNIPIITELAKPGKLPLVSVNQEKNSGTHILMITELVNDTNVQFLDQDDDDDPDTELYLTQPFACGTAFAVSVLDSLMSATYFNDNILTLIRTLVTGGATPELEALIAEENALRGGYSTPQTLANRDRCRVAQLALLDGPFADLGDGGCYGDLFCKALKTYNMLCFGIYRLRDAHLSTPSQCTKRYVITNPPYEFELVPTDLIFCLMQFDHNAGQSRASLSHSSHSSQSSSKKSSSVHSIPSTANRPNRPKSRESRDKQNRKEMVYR
T1 sequence (Q86W47 whole entry N123F, chain 2 of 2, the tested form may be a part): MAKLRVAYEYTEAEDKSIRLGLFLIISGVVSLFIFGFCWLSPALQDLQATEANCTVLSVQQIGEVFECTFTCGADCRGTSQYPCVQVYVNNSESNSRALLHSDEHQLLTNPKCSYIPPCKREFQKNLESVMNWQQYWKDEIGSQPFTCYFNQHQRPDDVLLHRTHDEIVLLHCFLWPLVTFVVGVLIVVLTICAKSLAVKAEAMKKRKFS
measured_attribute: pKd
// field semantics: pKd = negative decimal log of concentration (mol/L)

response.value for QFTNVSCTTSKECWSVCQRLHNTSRGKCMNKKCRCYS (charybdotoxin (ChTX), scorpion toxin; also called ChTX; source: bought: Sigma-Aldrich (Art. No. C7802)) [Charybdotoxin] (field: pKd) = 7.33
